target: human, citrated, platelet-rich plasma (Homo sapiens, UniProt P05106+P08514); construct: aggregating human, citrated, platelet-rich plasma; endogenous in cells; host or cells: human platelets in citrated platelet-rich plasma; test: Test (a): inhibition of ADP stimulated platelet aggregation (Born); assay type: cell-based; conditions: ADP induced aggregation of human platelet-rich plasma; read-out: Test (a): pA2 value indicating potency of platelet aggregation inhibition (converted)
Sequence (P08514 32-887 limits assumed): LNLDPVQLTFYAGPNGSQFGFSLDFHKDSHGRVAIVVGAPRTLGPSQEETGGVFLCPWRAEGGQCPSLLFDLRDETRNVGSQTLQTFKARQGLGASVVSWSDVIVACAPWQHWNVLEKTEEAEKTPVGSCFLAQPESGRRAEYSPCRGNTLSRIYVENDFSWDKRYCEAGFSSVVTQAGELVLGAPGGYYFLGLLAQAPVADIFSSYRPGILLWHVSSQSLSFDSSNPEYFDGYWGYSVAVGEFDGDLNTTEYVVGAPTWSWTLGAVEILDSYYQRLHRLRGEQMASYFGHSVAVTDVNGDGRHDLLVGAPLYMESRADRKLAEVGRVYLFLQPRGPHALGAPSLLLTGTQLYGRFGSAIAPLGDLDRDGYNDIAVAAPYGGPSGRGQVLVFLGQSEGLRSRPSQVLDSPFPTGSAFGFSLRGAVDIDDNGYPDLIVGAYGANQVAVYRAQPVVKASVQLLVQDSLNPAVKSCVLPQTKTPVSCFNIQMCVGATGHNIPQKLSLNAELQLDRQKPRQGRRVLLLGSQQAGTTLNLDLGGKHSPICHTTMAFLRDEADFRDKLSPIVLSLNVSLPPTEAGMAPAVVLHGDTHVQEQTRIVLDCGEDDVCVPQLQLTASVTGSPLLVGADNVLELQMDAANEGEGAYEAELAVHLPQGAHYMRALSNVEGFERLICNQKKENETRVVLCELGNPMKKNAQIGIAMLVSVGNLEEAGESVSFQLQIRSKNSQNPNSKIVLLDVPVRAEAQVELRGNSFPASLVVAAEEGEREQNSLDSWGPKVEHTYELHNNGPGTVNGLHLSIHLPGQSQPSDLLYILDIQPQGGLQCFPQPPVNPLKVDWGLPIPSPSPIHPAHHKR
Sequence (P08514 891-1039 limits assumed): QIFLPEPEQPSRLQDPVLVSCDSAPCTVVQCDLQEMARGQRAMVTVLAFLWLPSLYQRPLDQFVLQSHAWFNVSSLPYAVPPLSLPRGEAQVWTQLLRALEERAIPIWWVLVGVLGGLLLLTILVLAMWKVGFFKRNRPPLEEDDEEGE
Sequence (P05106 27-788): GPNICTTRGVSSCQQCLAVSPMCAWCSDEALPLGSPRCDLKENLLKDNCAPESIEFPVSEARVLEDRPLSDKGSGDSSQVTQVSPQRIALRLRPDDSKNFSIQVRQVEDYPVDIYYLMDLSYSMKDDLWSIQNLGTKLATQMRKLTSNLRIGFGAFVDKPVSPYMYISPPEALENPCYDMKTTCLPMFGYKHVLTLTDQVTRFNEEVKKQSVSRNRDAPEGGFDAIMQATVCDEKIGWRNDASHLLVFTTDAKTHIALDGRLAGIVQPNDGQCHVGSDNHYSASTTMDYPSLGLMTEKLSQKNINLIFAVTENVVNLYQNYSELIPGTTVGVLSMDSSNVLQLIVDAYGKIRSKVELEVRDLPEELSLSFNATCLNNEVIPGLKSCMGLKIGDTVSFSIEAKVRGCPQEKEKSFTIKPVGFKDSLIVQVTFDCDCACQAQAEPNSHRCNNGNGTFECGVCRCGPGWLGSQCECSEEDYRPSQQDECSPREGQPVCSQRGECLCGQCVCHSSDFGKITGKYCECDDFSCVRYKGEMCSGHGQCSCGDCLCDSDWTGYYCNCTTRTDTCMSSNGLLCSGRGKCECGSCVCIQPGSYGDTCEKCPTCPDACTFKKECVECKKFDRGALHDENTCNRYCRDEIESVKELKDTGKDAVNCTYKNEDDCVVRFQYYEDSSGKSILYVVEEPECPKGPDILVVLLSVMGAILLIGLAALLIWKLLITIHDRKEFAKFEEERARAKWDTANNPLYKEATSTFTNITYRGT
QUANTITY MEASURED: Kb (µM)

COMPOUND STRUCTURE | TARGET OF ASSAY | QUANTITATIVE RESULT
COC(=O)COc1ccc(C(=O)CN2CCN(c3ccnc4c3CCCC4)CC2)cc1 | human, citrated, platelet-rich plasma (Homo sapiens, UniProt P05106+P08514) | 3.98
Cc1ccc(S(=O)(=O)NCc2ccc(CCN3CCN(c4ccncc4)CC3)cc2)cc1 | human, citrated, platelet-rich plasma (Homo sapiens, UniProt P05106+P08514) | 5.01

[1] COC(=O)CCCc1ccc(CN2CCN(c3ccncc3)CC2)cc1
[2] Cc1ccc(S(=O)(=O)NCCc2ccc(NC(=O)C3CCN(c4ccncc4)CC3)cc2)cc1
q: When the recorded Kb values are compared, which is smaller: that of 1 or that of 2 ? Answer format: the label of the selected item.
a: 1
(1: 3.16 µM, 2: 5.01 µM)

###

Target: human, citrated, platelet-rich plasma (Homo sapiens, UniProt P05106+P08514)
Construct: aggregating human, citrated, platelet-rich plasma; endogenous in cells; host or cells: human platelets in citrated platelet-rich plasma
Assay: Test (a): inhibition of ADP stimulated platelet aggregation (Born)
Type: cell-based
Conditions: ADP induced aggregation of human platelet-rich plasma; read-out: Test (a): pA2 value indicating potency of platelet aggregation inhibition (converted)
From the text: (i) aggregating human, citrated, platelet-rich plasma by addition of adenosine diphosphate so as to generate a dose-response curve; (ii) generating a dose-response curve for ADP stimulated platelet aggregation in the presence of increasing amounts of a test compound (generally in the range 10-^5 M to 10-^10 M); and […]
Where a name gives a salt, the structure may show the parent alone.
QUANTITY MEASURED: Kb (nM)

COMPOUND | Kb, nM
COC(=O)COc1ccc(C(=O)CN2CCN(c3cc(C)nc(C)c3)CC2)cc1 [Example 153, hydrobromide] | 15800

[I] CCOC(=O)CNC(=O)COc1ccc(C(=O)CN2CCN(c3ccncc3)CC2=O)cc1
[II] O=C(O)C[C@H](NC(=O)CNC(=O)CN1CCN(c2ccncc2)CC1)C(=O)NCCc1ccccc1
q: Determine, for I and II , which has the greater value of Kb. Answer format: the label of the selected item.
a: II

[P] COC(=O)C(CCOc1ccc(N2CCN(c3ccncc3)CC2)cc1)NC(=O)OC(C)(C)C (racemic)
[Q] COC(=O)COc1ccc(CCN2CCN(c3ccncc3)CC2)cc1
[R] CC(C)OC(=O)COc1ccc(C(=O)CN2CCN(c3ccncc3)CC2)cc1
q: Order the items by recorded Kb; the first position goes to the largest value. Give the labels in the order requested.
a: P, Q, R
(P: 1580 nM, Q: 398 nM, R: 63.1 nM)

[I] O=C(O)CCC(=O)Nc1ccc(N2CCN(c3ccncc3)CC2)cc1
[II] CCCCS(=O)(=O)NCC1CCN(C(=O)CN2CCN(c3ccncc3)CC2)CC1
q: Determine, for I and II , which has the greater value of Kb. Answer format: the label of the selected item.
a: II

[P] O=C(O)CCNC(=O)CCCN1CCN(c2ccncc2)CC1 [Example 195, trifluoroacetate]
[Q] O=C(O)CCCCOc1cccc(N2CCN(c3ccncc3)CC2)c1
q: When the recorded Kb values are compared, which is smaller: that of P or that of Q ? Answer format: the label of the selected item.
a: P
(P: 2510 nM, Q: 3980 nM)

[a] COC(=O)CCCCc1ccc(CN2CCN(c3ccncc3)CC2)cc1
[b] CCOC(=O)CCCCOc1ccc(N2CCN(c3ccncc3)CC2)cc1
q: When the recorded Kb values are compared, which is smaller: that of a or that of b ? Answer format: the label of the selected item.
a: b

[A] COC(=O)CCNC(=O)c1ccc(N2CCN(c3ccncc3)CC2)nc1
[B] COC(=O)CC(NS(=O)(=O)c1ccc(C)cc1)c1ccc(OCC2CCN(c3ccncc3)CC2)cc1 (centres unmarked)
[C] Cc1ccc(S(=O)(=O)NCCc2ccc(C(=O)CN3CCN(c4ccncc4)CC3)cc2)cc1
[D] COC(=O)COc1ccc(C(=O)CN2CCN(c3ccncc3)CC2=O)cc1
q: // ascending sort on recorded Kb Give the labels in the order requested.
a: D, C, B, A
(D: 31.6 nM, C: 1000 nM, B: 3980 nM, A: 12600 nM)

Every entry's value here was drawn from patent US5750754A.
